assay: RP, Waters ACQUITY UPLC BEH C18, 100 × 2.1 mm, 1.7 µm, 0.1 mL/min, estimated dead time 2.2 min; A: water + 0.045% formic acid + 0.11% ammonium hydroxide, pH 7; B: methanol; gradient (min/%B) 0/5 5/5 25/95 25.1/100 35/100 35.1/5 45/5; conditions: stereoisomer not certain
endpointLabel: LC retention time (min)
Give just the number in min; leave the unit off.

Reference set, count: 8
O=C(O)c1cc(=O)c2ccccc2[nH]1 [4-HYDROXY-2-QUINOLINECARBOXYLIC ACID] | 11.7
CCCCCCCCCC(=O)OCC(COP(=O)([O-])OCC[N+](C)(C)C)OC(=O)CCCCCCCCC (stereo unspecified) [1,2-DIDECANOYL-SN-GLYCERO-3-PHOSPHOCHOLINE] | 29.7
Cc1cc2nc3c(=O)[nH]c(=O)nc-3n(CC(O)C(O)C(O)CO)c2cc1C (stereo unspecified) [RIBOFLAVIN] | 15.7
C=CC1=C(C)C(C=c2[nH]c(=Cc3[nH]c(C=C4NC(=O)C(C)=C4C=C)c(C)c3CCC(=O)O)c(CCC(=O)O)c2C)=NC1=O [BILIVERDIN] | 23.4
CC12CCC(=O)C=C1CCC1C2C(=O)CC2(C)C1CCC2(O)C(=O)CO (stereo unspecified) [CORTISONE] | 21
CC(=O)OCC(=O)C1CCC2C3CCC4=CC(=O)CCC4(C)C3CCC12C (stereo unspecified) [DEOXYCORTICOSTERONE ACETATE] | 25.3
CSCC1OC(n2cnc3c(N)ncnc32)C(O)C1O (stereo unspecified) [5'-METHYLTHIOADENOSINE] | 15.4
N[C@@H](Cc1ccc(O)cc1)C(=O)O [L-TYROSINE] | 10.2

The measured LC retention time associated with CC12CCC(=O)C=C1CCC1C2C(O)CC2(C)C1CCC2(O)C(=O)CO (stereo unspecified) [CORTISOL] reads 21.6

The measured LC retention time associated with Cc1ncc(C[n+]2csc(CCOP(=O)(O)O)c2C)c(N)n1 [THIAMINE MONOPHOSPHATE] reads 3.87

The measured LC retention time associated with N[C@@H](Cc1cc(I)c(Oc2ccc(O)cc2)c(I)c1)C(=O)O [3,5-DIIODO-L-THYRONINE] reads 20.4

----------
assay: RP, Waters CORTECS T3, 100 × 2.1 mm, 2.7 µm, 0.2 mL/min, estimated dead time 1.1 min; A: water + 0.1% formic acid, pH 3; B: methanol + 0.1% formic acid, pH 3; gradient (min/%B) 0/0 1/0 6/5 30/100 35/100 35.1/0 40/0; conditions: stereoisomer not certain
endpointLabel: log10 LC retention time (log10 of the value in min)
All values: base-10 log of LC retention time in min.

Reference set, count: 5
Nc1ccccc1S(=O)(=O)O | 0.48
Nc1nc2ncc(CNc3ccc(C(=O)NC(CCC(=O)O)C(=O)O)cc3)nc2c(=O)[nH]1 (centres undefined) | 1.12
CC(C)(CO)C(O)C(=O)NCCC(=O)O (centres undefined) | 0.98
O=c1[nH]c(=O)c2[nH]c(=O)[nH]c2[nH]1 [URATE] | 0.14
Cc1cc2nc3[nH]c(=O)[nH]c(=O)c3nc2cc1C | 1.26

The measured log10 LC retention time associated with CC(=O)N[C@@H](CC(C)C)C(=O)O reads 1.16

----------
test: RP, Waters ACQUITY UPLC BEH C18, 100 × 2.1 mm, 1.7 µm, 0.2 mL/min, estimated dead time 1.1 min; A: water + 0.1% formic acid, pH 3; B: methanol + 0.1% formic acid, pH 3; gradient (min/%B) 0/5 5/5 25/100 30/100 30.1/5 35/5; details: stereoisomer not certain
endpointLabel: log10 of LC retention time (log10 of the value in min)
All values: base-10 log of LC retention time in min.

Reference set, count: 4
O=C(O)CCCCCC(=O)O [6-CARBOXYHEXANOATE] | 1.08
Cc1cc2nc3[nH]c(=O)[nH]c(=O)c3nc2cc1C | 1.20
O=C(O)CCCCCCC(=O)O | 1.16
Cc1ncc(CO)c(C(=O)O)c1O [4-PYRIDOXATE] | 0.53

The measured log10 of LC retention time associated with O=c1[nH]cc(CO)c(=O)[nH]1 [5-HYDROXYMETHYLURACIL] reads 0.15

The measured log10 of LC retention time associated with c1ncc2[nH]cnc2n1 reads 0.37

The measured log10 of LC retention time associated with CC(=O)NC(CCCCN)C(=O)O (centres undefined) reads 0.13

The measured log10 of LC retention time associated with COc1cc(C=CC(=O)O)ccc1O [FERULATE] reads 1.16

The measured log10 of LC retention time associated with CC(=O)NC(CC(N)=O)C(=O)O (centres undefined) reads 0.14

----------
assay: RP, Waters CORTECS T3, 100 × 2.1 mm, 2.7 µm, 0.1 mL/min, estimated dead time 2.2 min; A: water + 0.1% formic acid, pH 3; B: methanol + 0.1% formic acid, pH 3; gradient (min/%B) 0/5 5/5 25/95 25.1/100 35/100 35.1/5 45/5; conditions: stereoisomer not certain
// classify: if (LC retention time < 20 min) YES else NO

Study these solved cases before continuing.
NC(=O)[C@@H](N)Cc1c[nH]c2ccccc12 [L-TRYPTOPHANAMIDE] | YES
CC(C)=CCNc1ncnc2nc[nH]c12 | YES
CCCCCCCCCCCC(=O)OC(CC(=O)[O-])C[N+](C)(C)C (stereo not given) | NO
CSc1ncnc2nc[nH]c12 | YES
O=C([O-])Cc1c[nH]c2ccccc12 [INDOLE-3-ACETATE] | YES
CC(=O)N[C@H](Cc1c[nH]c2ccccc12)C(=O)O | YES

LC retention time under 20 min? Item: CNCCc1c[nH]c2ccccc12 YES

LC retention time under 20 min? Item: Nc1cccc2ccccc12 YES

LC retention time under 20 min? Item: C=CC1=C(C)C(C=c2[nH]c(=Cc3[nH]c(C=C4NC(=O)C(C)=C4C=C)c(C)c3CCC(=O)O)c(CCC(=O)O)c2C)=NC1=O NO

LC retention time under 20 min? Item: NC(Cc1ccc(Oc2cc(I)c(O)c(I)c2)c(I)c1)C(=O)O (stereo not given) NO

----------
LC retention time values for the compounds below.
assay: RP, Waters CORTECS T3, 100 × 2.1 mm, 2.7 µm, 0.3 mL/min, estimated dead time 0.73 min; A: water + 0.1% formic acid, pH 3; B: methanol + 0.1% formic acid, pH 3; gradient (min/%B) 0/0 5/0 25/100 30/100 30.1/0 35/0; settings: stereoisomer not certain
Where a name gives a salt, the structure may show the parent alone.
Give just the number in min; leave the unit off.

Reference set, count: 6
O=C(O)c1cc(=O)c2ccccc2[nH]1 [4-HYDROXY-2-QUINOLINECARBOXYLIC ACID] | 10.5
c1ncc2[nH]cnc2n1 | 2.61
O=S(=O)(O)Oc1c[nH]c2ccccc12 [INDOXYL SULFATE] | 8.35
Cc1cc2nc3c(=O)[nH]c(=O)nc-3n(CC(O)C(O)C(O)CO)c2cc1C (configuration not stated) | 12.5
CCC(NC(=O)CCC(N)C(=O)O)C(=O)NCC(=O)O (configuration not stated) | 0.93
CSCCC(NC=O)C(=O)O [FORMYL-L-METHIONYL PEPTIDE] | 8.31

The measured LC retention time associated with CC(=O)N[C@@H](CC(=O)O)C(=O)O reads 0.97

The measured LC retention time associated with CC(=O)N[C@H](Cc1c[nH]c2ccccc12)C(=O)O reads 13.2

The measured LC retention time associated with Cc1ncc(CO)c(C(=O)O)c1O [4-PYRIDOXATE] reads 4.79

The measured LC retention time associated with O=c1ccn(C2OC(COP(=O)(O)O)C(O)C2O)c(=O)[nH]1 (configuration not stated) [URIDINE-5-MONOPHOSPHATE] reads 0.89

The measured LC retention time associated with Nc1nc2c(ncn2C2OC(COP(=O)(O)O)C(O)C2O)c(=O)[nH]1 (configuration not stated) [GUANOSINE 5'-MONOPHOSPHATE] reads 0.89

The measured LC retention time associated with Nc1ncnc2c1ncn2C1CC(O)C(COP(=O)(O)O)O1 (configuration not stated) reads 0.89

----------
assay: RP, Waters ACQUITY UPLC BEH C18, 100 × 2.1 mm, 1.7 µm, 0.1 mL/min, estimated dead time 2.2 min; A: water + 0.1% formic acid, pH 3; B: methanol + 0.1% formic acid, pH 3; gradient (min/%B) 0/5 5/5 25/95 25.1/100 35/100 35.1/5 45/5; settings: stereoisomer not certain
// classify: if (LC retention time < 10 min) Criterion met else Criterion not met

CC(=O)NC(CC(N)=O)C(=O)O [N-ALPHA-ACETYL-L-ASPARAGINE] | Criterion met

LC retention time under 10 min? Item: Nc1ncnc2c1ncn2C1CC(O)C(COP(=O)(O)O)O1 (stereo not given) [DAMP] Criterion met

LC retention time under 10 min? Item: O=c1[nH]c(=O)c2[nH]c(=O)[nH]c2[nH]1 [URATE] Criterion met

LC retention time under 10 min? Item: O=C(O)c1cc(=O)c2cccc(O)c2[nH]1 [XANTHURENIC ACID] Criterion not met

LC retention time under 10 min? Item: CSCCC(NC=O)C(=O)O [FORMYL-L-METHIONYL PEPTIDE] Criterion not met

LC retention time under 10 min? Item: CC(C)=CCNc1ncnc2nc[nH]c12 [N6-(DELTA2-ISOPENTENYL)-ADENINE] Criterion not met

LC retention time under 10 min? Item: c1ncc2[nH]cnc2n1 [PURINE] Criterion met

LC retention time under 10 min? Item: Nc1ccn(C2OC(CO)C3OP(=O)([O-])OC32)c(=O)n1 (stereo not given) [CYTIDINE 2',3'-CYCLIC MONOPHOSPHATE] Criterion met

LC retention time under 10 min? Item: CC1NC(=O)NC1CCCCCC(=O)O (stereo not given) [DETHIOBIOTIN] Criterion not met

LC retention time under 10 min? Item: Cc1cc2nc3[nH]c(=O)[nH]c(=O)c3nc2cc1C [LUMICHROME] Criterion not met
